tested on: Plasmodium berghei; assay: Luciferase/luciferin-expressing antifolate-resistant parasites were used to infect a culture of HepG2 cells that were pre-incubated with compounds. Infected hepatocytes emit light due to the luciferase reaction. Assay results are presented as the percent inhibition of light emission compared to control. […]; assay type: functional; details: sporozoite, PBLUC_HILL_SLOPE 0.775, PBLUC_R_SQUARED 0.83, read-out: LUCIFERASE INFECTION ASSAY - IC50
pIC50: −log10 of the molar value.
Quantity Measured: pIC50

>>> data_value("Clc1cccc(Nc2ncc(-c3ccc4c(c3)OCCCO4)s2)c1")
6.69

* * *

test system: Plasmodium berghei; test: Luciferase/luciferin-expressing antifolate-resistant parasites were used to infect a culture of HepG2 cells that were pre-incubated with compounds. Infected hepatocytes emit light due to the luciferase reaction. Assay results are presented as the percent inhibition of light emission compared to control. […]; type: functional; details: sporozoite, PBLUC_HILL_SLOPE 25.8, PBLUC_R_SQUARED 0.198, read-out: LUCIFERASE INFECTION ASSAY - IC50
pIC50: −log10 of the molar value.
Quantity Measured: pIC50

>>> data_value("Cc1cc(C(=O)ONC(=N)c2c(-c3c(Cl)cccc3Cl)noc2C)no1")
5.09

* * *

test system: Plasmodium berghei; test: Luciferase/luciferin-expressing antifolate-resistant parasites were used to infect a culture of HepG2 cells that were pre-incubated with compounds. Infected hepatocytes emit light due to the luciferase reaction. Assay results are presented as the percent inhibition of light emission compared to control. […]; type: functional; settings: sporozoite, FFLUC_HILL_SLOPE 3.23, FFLUC_R_SQUARED 0.696, PBLUC_HILL_SLOPE 2.23, PBLUC_R_SQUARED 0.861, read-out: LUCIFERASE INFECTION ASSAY - IC50
Quantity Measured: IC50 (µM)

>>> data_value("Cc1ccc(-n2c(Sc3ccc4nnnn4n3)nc3sc4c(c3c2=O)CCC(C)C4)cc1C (stereo unspecified)")
4.15

* * *

test system: Plasmodium berghei; assay: Luciferase/luciferin-expressing antifolate-resistant parasites were used to infect a culture of HepG2 cells that were pre-incubated with compounds. Infected hepatocytes emit light due to the luciferase reaction. Assay results are presented as the percent inhibition of light emission compared to control. […]; type: functional; conditions: sporozoite, HEPG2TOX_HILL_SLOPE 3.33, HEPG2TOX_R_SQUARED 0.906, PBLUC_HILL_SLOPE 141, PBLUC_R_SQUARED 0.0106, read-out: LUCIFERASE INFECTION ASSAY - IC50
Quantity Measured: IC50 (µM)

>>> data_value("Cc1noc(C)c1CSc1ccccc1C(=O)NNC(=O)c1ccc2ccccc2n1")
6.66

* * *

tested on: Plasmodium berghei; test: Luciferase/luciferin-expressing antifolate-resistant parasites were used to infect a culture of HepG2 cells that were pre-incubated with compounds. Infected hepatocytes emit light due to the luciferase reaction. Assay results are presented as the percent inhibition of light emission compared to control. […]; format: functional; conditions: sporozoite, read-out: LUCIFERASE INFECTION ASSAY - IC90
Quick reference: IC90 of the listed items.
Quantity Measured: IC90

>>> data_value("CC1CCCCC1Nc1ncnc2sccc12 (stereo unspecified)")
"> 10 µM"
>>> data_value("COc1ccc(CNc2ccc3ncc(-c4ccc(OC)c(OC)c4)n3n2)cc1")
"4.78 µM"
>>> data_value("O=C(NCCOc1ccccc1F)NCC1CC1")
"> 10 µM"
>>> data_value("O=C1COc2ccc(-c3cs/c(=N\\CCc4ccccc4)n3/N=C/c3ccc4ncccc4c3)cc2N1")
"> 10 µM"
>>> data_value("N#Cc1c(SCC(=O)c2ccccc2)nc2c(c1-c1cccs1)CCCC2")
"> 8.45 µM"
>>> data_value("COCc1ccc(C(=O)Nc2ccc(-n3cnc4ccccc43)nc2)cc1")
"> 10 µM"
>>> data_value("Cc1cc(C(=O)Cn2c(CO)nc3ccccc32)c(C)n1-c1ccccc1")
"> 10 µM"
>>> data_value("CCOC(=O)c1c(NC(=O)Cn2ncc(Cl)c(Cl)c2=O)sc(C(=O)NC)c1C")
"6.18 µM"
>>> data_value("COc1cc(NC(=O)c2cc(N3CCN(c4ccccn4)CC3)ncn2)cc(OC)c1OC")
"1.61 µM"
>>> data_value("O=C(NCc1ccc(-c2cccs2)s1)c1ccc([N+](=O)[O-])s1")
"> 9.42 µM"
>>> data_value("Cc1onc(-c2c(Cl)cccc2Cl)c1C(=O)Nc1ccccc1C(=O)NCc1c(F)cccc1Cl")
"> 6.19 µM"

* * *

system: Plasmodium berghei; assay: Luciferase/luciferin-expressing antifolate-resistant parasites were used to infect a culture of HepG2 cells that were pre-incubated with compounds. Infected hepatocytes emit light due to the luciferase reaction. Assay results are presented as the percent inhibition of light emission compared to control. […]; format: functional; details: sporozoite, PBLUC_HILL_SLOPE 3.93, PBLUC_R_SQUARED 0.515, read-out: LUCIFERASE INFECTION ASSAY - IC50
Quantity Measured: IC50 (nM)

>>> data_value("Cc1cc(C)n(-c2ccc(NC(=O)C3(c4ccccc4)CC3)cn2)n1")
477

* * *

tested on: Plasmodium berghei; experiment: Luciferase/luciferin-expressing antifolate-resistant parasites were used to infect a culture of HepG2 cells that were pre-incubated with compounds. Infected hepatocytes emit light due to the luciferase reaction. Assay results are presented as the percent inhibition of light emission compared to control. […]; assay type: functional; conditions: sporozoite, PBLUC_HILL_SLOPE 2.80, 14.9, PBLUC_R_SQUARED 0.685, 0.405, read-out: LUCIFERASE INFECTION ASSAY - IC50
pIC50: −log10 of the molar value.
Quantity Measured: pIC50

>>> data_value("Cc1cc(C)cc(C(=O)NCC(=O)N(C)Cc2cn(-c3ccccc3)nc2-c2ccccc2)c1")
5.12

* * *

tested on: Plasmodium berghei; test: Luciferase/luciferin-expressing antifolate-resistant parasites were used to infect a culture of HepG2 cells that were pre-incubated with compounds. Infected hepatocytes emit light due to the luciferase reaction. Assay results are presented as the percent inhibition of light emission compared to control. […]; assay type: functional; conditions: sporozoite, HEPG2TOX_HILL_SLOPE 12.7, HEPG2TOX_R_SQUARED 0.279, PBLUC_HILL_SLOPE 14.5, PBLUC_R_SQUARED 0.467, read-out: LUCIFERASE INFECTION ASSAY - IC50
pIC50: −log10 of the molar value.
Quantity Measured: pIC50

>>> data_value("CC1CCc2[nH]c3ccc(C(=O)NCc4ccccc4CN(C)C)cc3c2C1 (stereo unspecified)")
5.04

* * *

test system: Plasmodium berghei; assay: Luciferase/luciferin-expressing antifolate-resistant parasites were used to infect a culture of HepG2 cells that were pre-incubated with compounds. Infected hepatocytes emit light due to the luciferase reaction. Assay results are presented as the percent inhibition of light emission compared to control. […]; type: functional; details: sporozoite, HEPG2TOX_HILL_SLOPE 1.89, HEPG2TOX_R_SQUARED 0.971, PBLUC_HILL_SLOPE 2.39, PBLUC_R_SQUARED 0.271, read-out: LUCIFERASE INFECTION ASSAY - IC50
pIC50: −log10 of the molar value.
Quantity Measured: pIC50

>>> data_value("c1csc(CNc2ccc3ncc(-c4ccc5[nH]ccc5c4)n3n2)c1")
5.31

* * *

Quick reference: IC90 of the listed items.
tested on: Plasmodium berghei; experiment: Luciferase/luciferin-expressing antifolate-resistant parasites were used to infect a culture of HepG2 cells that were pre-incubated with compounds. Infected hepatocytes emit light due to the luciferase reaction. Assay results are presented as the percent inhibition of light emission compared to control. […]; type: functional; settings: sporozoite, read-out: LUCIFERASE INFECTION ASSAY - IC90
Quantity Measured: IC90

>>> data_value("CN(C)C(CNc1cc(C(=O)NC2CC2)c2ccccc2n1)Cc1ccccc1 (configuration not stated)")
"> 10 µM"
>>> data_value("COCCCNc1nnc(Cc2ccc(Cl)cc2)c(O)n1")
"> 10.7 µM"
>>> data_value("C=C(C)C(=O)Nc1ccc([N+](=O)[O-])cc1Cl")
"> 13.7 µM"
>>> data_value("N#CN=c1nc(/C=C/c2ccccc2Cl)[nH]c(-c2ccccc2O)n1")
"4.29 µM"
>>> data_value("Fc1ccccc1-n1cnnc1SC(c1ccccc1)c1ccccc1")
"1.93 µM"
>>> data_value("Cc1cc(C(=O)COC(=O)c2ccccc2C(F)(F)F)c(C)n1Cc1ccccc1Cl")
"3.52 µM"
>>> data_value("Cc1cc(C(=O)Cn2c(C(C)O)nc3ccccc32)c(C)n1-c1ccc(F)c(Cl)c1 (configuration not stated)")
"> 10 µM"
>>> data_value("Cn1c(NCC2CC2)nc2cnc(Nc3cccc(Oc4ccccc4)c3)cc21")
"3.77 µM"
>>> data_value("N#Cc1ccc(-c2cc(C3(CNc4cccc(OC(F)(F)F)c4)CC3)ccn2)cc1")
"> 10 µM"
>>> data_value("CN1/C(=C\\C(=O)COC(=O)c2cc3ccccc3cc2O)C(C)(C)c2ccccc21")
"> 10 µM"
>>> data_value("CCC1CCCCN1C(=O)CSC(=Nc1ccccc1F)C(C#N)c1nc2ccccc2s1 (configuration not stated)")
"9.73 µM"
>>> data_value("COc1ccccc1N(C)S(=O)(=O)c1ccc(Cl)c(C(=O)Nc2cccc(C)n2)c1")
"2.83 µM"
>>> data_value("O=S(=O)(c1ccc(NC(=S)N/N=C2\\CC(c3ccccc3)Oc3ccccc32)cc1)N1CCOCC1 (configuration not stated)")
"> 10 µM"
>>> data_value("c1ccc(-c2csc3nc(-c4ccccn4)nc(Sc4nnc(-c5ccco5)o4)c23)cc1")
"> 10 µM"
>>> data_value("Cc1nc(NC(=O)c2ccc(C(C)(C)C)cc2)ccc1Br")
"> 9.5 µM"
>>> data_value("CCOC(=O)C1=C(Nc2ccc(OS(=O)(=O)c3ccc(Cl)cc3)cc2)C(=O)N(C(C)(C)C)C1")
"> 6.69 µM"
>>> data_value("CCc1cc(=O)oc2cc(OCc3csc(N(C(C)=O)c4cccc(C)c4)n3)ccc12")
"> 10 µM"
>>> data_value("Cc1ccc(Oc2ccc(OCC(=O)NC3CCN(C(C)C)CC3)cc2)cc1")
"> 10 µM"
>>> data_value("CCN(CC)Cc1ccc(OCC(=O)Nc2ccc(Cl)cc2)c2ncccc12")
"> 10 µM"
>>> data_value("COc1ccc(-c2csc3ncnc(NCc4ccc(-n5ccnc5)nc4)c23)cc1")
"10 µM"
>>> data_value("CCN(CCNc1ncnc2sc(-c3ccccc3)cc12)c1cccc(C)c1")
"3.9 µM"
>>> data_value("CCCN1CCc2nc(Nc3ccc(Oc4ccccc4)cc3)ncc2C1")
"> 9.16 µM"
>>> data_value("CCN(CC(O)COc1ccccc1-c1ccccc1)C1CCCCC1 (configuration not stated)")
"9.13 µM"
>>> data_value("CC(c1ccc(-n2cncn2)cc1)N(C)S(=O)(=O)N1CCc2ccccc2C1 (configuration not stated)")
"> 10 µM"
>>> data_value("COc1ccc(C(=O)Nc2ccc3nc(-c4ccccc4OC)nn3c2)cc1OC")
"> 10 µM"
>>> data_value("CCOc1ccc(NC(=O)c2ccccc2NC(=O)COC(=O)/C(=C/c2cc(OC)c(OC)c(OC)c2)c2ccc(-c3ccccc3)cc2)cc1")
"> 10 µM"
>>> data_value("Cc1ccc(C)c(C(=O)C(C)Sc2nnc(-c3cccc(Br)c3)o2)c1 (configuration not stated)")
"9.4 µM"
>>> data_value("Cc1cc(C(=O)NCCSc2ccccc2)c(C)n1C(C)C")
"6.44 µM"
>>> data_value("O=C(CCSc1n[nH]c(=O)n1C1CC1)Nc1ccccc1")
"> 10 µM"
>>> data_value("Cn1c(C(C#N)c2nc(C#N)c(C#N)nc2Cl)nc2ccccc21 (configuration not stated)")
"> 10 µM"
>>> data_value("Cc1cc(N2CCN(C(=O)C(C)Oc3ccc(F)cc3)CC2)nc(C(C)C)n1 (configuration not stated)")
"> 10 µM"
>>> data_value("Cc1nn(-c2ccccc2)c(C)c1C(=O)C(=O)NC(C)c1ccc(S(N)(=O)=O)cc1 (configuration not stated)")
"> 10 µM"
>>> data_value("Cc1ccc(-n2c(C)cc(C(=O)CSc3nc(N)cc(N)n3)c2C)cc1C")
"4.39 µM"
>>> data_value("Cn1cnnc1SCC(=O)NC(Cc1c[nH]c2ccccc12)C(=O)O (configuration not stated)")
"> 10 µM"
>>> data_value("O=C(c1cccnc1)N1CCc2nc(NCc3cccc(Oc4ccccc4)c3)ncc2C1")
"> 7.54 µM"
>>> data_value("CCOC(=O)c1sc2nc(CSc3ccccc3)nc(NCC(O)CN(C)C)c2c1C (configuration not stated)")
"> 10 µM"
>>> data_value("CCc1cccc2c(/C=C3\\C(=O)Nc4ccccc43)c[nH]c12")
"> 10 µM"
>>> data_value("CC1CC(C)CN(c2nc3c(c(=O)[nH]c(=O)n3C)n2Cc2ccccc2F)C1 (configuration not stated)")
"> 8.56 µM"
>>> data_value("O=C(Nc1ccccc1Nc1cc(-c2ccccc2)nn1-c1ccccc1)c1ccc([N+](=O)[O-])cc1")
"> 10 µM"
>>> data_value("Nc1nc(Sc2ncnc3sccc23)nc2sccc12")
"8.89 µM"
>>> data_value("Cc1cccc(N/N=C2\\C=NN=C2c2ccc(Br)cc2)c1")
"> 9.67 µM"
>>> data_value("Cc1[nH]c2ccccc2c1CC(=O)N1CCc2c(c(C(=O)NCc3cccnc3)nn2CC(C)C)C1")
"6.57 µM"
